target: UniProt P39086; assay: Binding affinity towards cloned human GluR5 subunit stably expressed in cultured HEK293 cells using [3]H-kainate as radioligand
Sequence (P39086 whole entry): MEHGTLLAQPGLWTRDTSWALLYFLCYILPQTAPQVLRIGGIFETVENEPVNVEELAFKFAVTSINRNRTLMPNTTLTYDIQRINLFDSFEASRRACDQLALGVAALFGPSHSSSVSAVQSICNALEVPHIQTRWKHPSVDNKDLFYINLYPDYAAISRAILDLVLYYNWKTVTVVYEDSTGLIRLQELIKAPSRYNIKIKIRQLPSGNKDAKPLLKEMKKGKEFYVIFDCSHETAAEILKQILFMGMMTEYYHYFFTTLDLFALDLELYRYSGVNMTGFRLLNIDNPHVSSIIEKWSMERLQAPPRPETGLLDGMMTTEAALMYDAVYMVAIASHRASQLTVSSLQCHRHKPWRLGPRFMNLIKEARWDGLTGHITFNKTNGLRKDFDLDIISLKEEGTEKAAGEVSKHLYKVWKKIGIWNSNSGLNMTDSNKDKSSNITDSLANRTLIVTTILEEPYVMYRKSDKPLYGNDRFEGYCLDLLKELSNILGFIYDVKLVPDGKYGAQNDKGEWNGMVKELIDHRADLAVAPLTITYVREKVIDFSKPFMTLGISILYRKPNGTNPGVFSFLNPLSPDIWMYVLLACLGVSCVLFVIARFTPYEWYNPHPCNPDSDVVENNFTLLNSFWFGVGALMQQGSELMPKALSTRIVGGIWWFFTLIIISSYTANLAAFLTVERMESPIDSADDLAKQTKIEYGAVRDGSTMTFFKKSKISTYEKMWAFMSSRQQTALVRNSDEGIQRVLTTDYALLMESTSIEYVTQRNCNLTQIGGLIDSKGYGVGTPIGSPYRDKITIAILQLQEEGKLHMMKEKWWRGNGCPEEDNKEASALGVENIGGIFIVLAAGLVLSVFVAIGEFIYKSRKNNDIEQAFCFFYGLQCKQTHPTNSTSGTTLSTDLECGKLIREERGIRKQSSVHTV
ASSAY ENDPOINT: pKi
In plain terms, pKi is the concentration in mol/L turned into minus its base-10 logarithm.

GET /value?item= O=C(O)CCn1c(=O)c(=O)[nH]c2cc([N+](=O)[O-])c(-n3cccc3)cc21 &field=pKi returns 5.62

Kindly note the recorded pKi for O=C(O)Cn1c(=O)c(=O)[nH]c2cc(C(F)(F)F)c(-n3ccc(CNC(=O)Nc4ccc([N+](=O)[O-])cc4)c3)cc21 , which is 7.00

pKi reading for O=C(O)Cn1c(=O)c(=O)[nH]c2cc([N+](=O)[O-])c(-n3ccc(C(=O)O)c3)cc21 : 5.85

Reference source: ChEMBL document CHEMBL1135949
